Reference source: patent US20250195521A1

The compounds listed here are annotated with their IC50.
TARGET ENTITY: KRAS G12C (Homo sapiens (Human), UniProt P01116+P62937, G12C)
Sequence (P01116-2 other isoform, or with tags, fused parts or gaps G12C, one chain of several): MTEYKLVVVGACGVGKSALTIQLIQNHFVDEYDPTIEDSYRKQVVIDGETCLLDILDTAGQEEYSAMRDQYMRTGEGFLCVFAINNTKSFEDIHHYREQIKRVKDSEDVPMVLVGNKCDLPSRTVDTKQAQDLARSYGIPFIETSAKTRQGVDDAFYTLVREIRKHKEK
PROTOCOL DESCRIPTION: Ras-Raf disruption/FRET/MOA assay (BRAF RBD, Cyclophilin A)
Format: biochemical
CONDITION PARAMETERS: read-out: KRAS G12C FRET IC50

Worked cases, answers included:
[
  {
    "COMPOUND": "CCn1c(-c2cccnc2[C@H](C)OC)c2c3cc(ccc31)-c1csc(n1)C[C@H](NC(=O)[C@H](C(C)C)N(C)C(=O)N1[C@H](C)COC[C@@H]1C)C(=O)N1CCC[C@H](N1)C(=O)OCC(C)(C)C2 [Compound A276]",
    "ASSAY RESULT": "100 to 1000 nM"
  },
  {
    "COMPOUND": "CCn1c(-c2cccnc2[C@H](C)OC)c2c3cc(ccc31)-c1cc(O)cc(c1)C[C@H](NC(=O)[C@H](C(C)C)N(C)C(=O)C1CC13CNC3)C(=O)N1CCC[C@H](N1)C(=O)OCC(C)(C)C2 (some centres unmarked) [Compound A140]",
    "ASSAY RESULT": "10 to 100 nM"
  }
]

**Query** // lookup IC50 for CCn1c(-c2cccnc2COC)c2c3cc(ccc31)-c1cc(O)cc(c1)C[C@H](NC(=O)[C@H](C(C)C)N(C)C(=O)c1ccc(NC(=O)/C=C/CN(C)C)cn1)C(=O)N1CCC[C@H](N1)C(=O)OCC(C)(C)C2 [Compound A67]
**Result** 10 to 100 nM

**Query** // lookup IC50 for CCn1c(-c2cccnc2[C@H](C)OC)c2c3cc(ccc31)-c1csc(n1)C[C@H](NC(=O)[C@H](C(C)C)N(C)C(=O)N1CCO[C@H](c3ccccc3)C1)C(=O)N1CCC[C@H](N1)C(=O)OCC(C)(C)C2 [Compound A582]
**Result** 10 to 100 nM

**Query** // lookup IC50 for CCn1c(-c2cnccc2COC)c2c3cc(ccc31)-c1cc(O)cc(c1)C[C@H](NC(=O)[C@H](C(C)C)N(C)C(=O)CNC(=N)N)C(=O)N1CCC[C@H](N1)C(=O)OCC(C)(C)C2 [Compound A68]
**Result** 10 to 100 nM

**Query** // lookup IC50 for CCn1c(-c2cccnc2[C@H](C)OC)c2c3cc(ccc31)-c1csc(n1)C[C@H](NC(=O)[C@H](C(C)C)N(C)C(=O)N1CC(C(=O)N3CCOCC3)C1)C(=O)N1CCC[C@H](N1)C(=O)OCC(C)(C)C2 [Compound A543]
**Result** 10 to 100 nM

**Query** // lookup IC50 for CCn1c(-c2cccnc2[C@H](C)OC)c2c3cc(ccc31)-c1cc(O)cc(c1)C[C@H](NC(=O)[C@@H](C(C)C)N(C)C(C)=O)C(=O)N1CCC[C@H](N1)C(=O)OCC(C)(C)C2 [Compound A256]
**Result** 1000 to 10000 nM

**Query** // lookup IC50 for CCn1c(-c2cccnc2[C@H](C)OC)c2c3cc(ccc31)-c1csc(n1)C[C@H](NC(=O)[C@H](C(C)C)N(C)C(=O)N1CC[C@H]1CN(C)C)C(=O)N1CCC[C@H](N1)C(=O)OCC(C)(C)C2 [Compound A508]
**Result** 100 to 1000 nM

====

The compounds listed here are annotated with their pIC50.
TARGET ENTITY: KRAS G12S (Homo sapiens (Human), UniProt P01116+P62937, G12S)
Sequence (P01116 other isoform, or with tags, fused parts or gaps G12S, one chain of several): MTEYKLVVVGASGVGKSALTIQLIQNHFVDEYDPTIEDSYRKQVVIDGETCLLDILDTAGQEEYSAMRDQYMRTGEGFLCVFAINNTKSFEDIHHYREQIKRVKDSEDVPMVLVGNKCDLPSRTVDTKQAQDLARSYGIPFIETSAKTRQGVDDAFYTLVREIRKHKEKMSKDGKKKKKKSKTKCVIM
PROTOCOL DESCRIPTION: Ras-Raf disruption/FRET/MOA assay (BRAF RBD, Cyclophilin A)
Assay type: biochemical
CONDITION PARAMETERS: read-out: KRAS G12S FRET IC50
pIC50: −log10 of the molar value.

Worked cases, answers included:
[
  {
    "SMILES INPUT": "CCn1c(-c2cccnc2[C@H](C)OC)c2c3cc(ccc31)-c1csc(n1)C[C@H](NC(=O)[C@H](C(C)C)N(C)C(=O)N1CCC1)C(=O)N1CCC[C@H](N1)C(=O)OCC(C)(C)C2",
    "pIC50": "6.00 to 7.00"
  },
  {
    "SMILES INPUT": "CCn1c(-c2cccnc2[C@H](C)OC)c2c3cc(ccc31)-c1csc(n1)C[C@H](NC(=O)[C@H](C(C)C)N(C)C(=O)N1C[C@H](N)[C@@H](O)C1)C(=O)N1CCC[C@H](N1)C(=O)OCC(C)(C)C2",
    "pIC50": "6.00 to 7.00"
  }
]

**Query** I'm curious: which pIC50 was measured for CCn1c(-c2cccnc2[C@H](C)OC)c2c3cc(ccc31)-c1csc(n1)C[C@H](NC(=O)[C@H](C(C)C)N(C)C(=O)N1CC(N(C)C(C)C)C1)C(=O)N1CCC[C@H](N1)C(=O)OCC(C)(C)C2 tested on KRAS G12S (Homo sapiens (Human), UniProt P01116+P62937, G12S)?
**Result** 6.00 to 7.00

**Query** I'm curious: which pIC50 was measured for CCn1c(-c2cccnc2[C@H](C)OC)c2c3cc(ccc31)-c1csc(n1)C[C@H](NC(=O)[C@H](C(C)C)N(C)C(=O)N1CC3(CCN(C)C3)C1)C(=O)N1CCC[C@H](N1)C(=O)OCC(C)(C)C2 tested on KRAS G12S (Homo sapiens (Human), UniProt P01116+P62937, G12S)?
**Result** 6.00 to 7.00

**Query** I'm curious: which pIC50 was measured for CCO[C@@H]1c2nc(cs2)-c2ccc3c(c2)c(c(-c2cccnc2[C@H](C)OC)n3CC)CC(C)(C)COC(=O)[C@@H]2CCCN(N2)C(=O)[C@H]1NC(=O)[C@H]1[C@H](C)[C@@H]1c1cn(C)cn1 tested on KRAS G12S (Homo sapiens (Human), UniProt P01116+P62937, G12S)?
**Result** 7.00 to 8.00

====

TARGET ENTITY: KRAS G13D (Homo sapiens (Human), UniProt P01116+P62937, G13D)
Sequence (P01116 other isoform, or with tags, fused parts or gaps G13D): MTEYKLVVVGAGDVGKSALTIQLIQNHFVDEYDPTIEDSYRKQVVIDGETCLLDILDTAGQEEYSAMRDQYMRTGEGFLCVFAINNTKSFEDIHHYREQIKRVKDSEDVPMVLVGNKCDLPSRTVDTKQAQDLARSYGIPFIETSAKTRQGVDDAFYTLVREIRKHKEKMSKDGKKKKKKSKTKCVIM
Sequence (P62937 whole entry): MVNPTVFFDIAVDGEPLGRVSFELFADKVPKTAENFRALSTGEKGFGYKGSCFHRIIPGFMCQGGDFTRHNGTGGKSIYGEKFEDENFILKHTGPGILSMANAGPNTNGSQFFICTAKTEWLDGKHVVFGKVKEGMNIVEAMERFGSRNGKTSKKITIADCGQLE
PROTOCOL DESCRIPTION: Ras-Raf disruption/FRET/MOA assay (BRAF RBD, Cyclophilin A)
Format: biochemical
CONDITION PARAMETERS: read-out: KRAS G13D FRET data IC50
MEASURED ENDPOINT: IC50

[
  {
    "COMPOUND": "CCn1c(-c2cccnc2[C@H](C)OC)c2c3cc(ccc31)-c1csc(n1)C[C@H](NC(=O)[C@H](C(C)C)N(C)C(=O)N1CCO[C@@H](c3ccccc3)C1)C(=O)N1CCC[C@H](N1)C(=O)OCC(C)(C)C2 [Compound A600]",
    "ASSAY RESULT": "100 to 1000 nM"
  },
  {
    "COMPOUND": "CCn1c(-c2cccnc2[C@H](C)OC)c2c3cc(ccc31)-c1csc(n1)C[C@H](NC(=O)[C@H](C(C)C)N(C)C(=O)N1C[C@@H]3C[C@H]1CN3C)C(=O)N1CCC[C@H](N1)C(=O)OCC(C)(C)C2 [Compound A314]",
    "ASSAY RESULT": "100 to 1000 nM"
  },
  {
    "COMPOUND": "CCn1c(-c2cccnc2[C@H](C)OC)c2c3cc(ccc31)-c1cc(O)cc(c1)C[C@H](NC(=O)[C@@H]1[C@H](C)CCN1C(C)=O)C(=O)N1CCC[C@H](N1)C(=O)OCC(C)(C)C2 [Compound A144]",
    "ASSAY RESULT": "1000 to 10000 nM"
  }
]

**Query** // lookup IC50 for CCn1c(-c2cccnc2[C@H](C)OC)c2c3cc(ccc31)-c1cc(O)cc(c1)C[C@H](NC(=O)[C@H](C(C)C)N(C)C(=O)OCc1ccccc1)C(=O)N1CCC[C@H](N1)C(=O)OCC(C)(C)C2 [Compound A185]
**Result** 1000 to 10000 nM

====

TARGET ENTITY: K-Ras G12C(GMP-PNP) binding to BRAF RBD (Homo sapiens (Human), UniProt P01116+P62937, G12C)
Sequence (P01116 other isoform, or with tags, fused parts or gaps G12C, one chain of several): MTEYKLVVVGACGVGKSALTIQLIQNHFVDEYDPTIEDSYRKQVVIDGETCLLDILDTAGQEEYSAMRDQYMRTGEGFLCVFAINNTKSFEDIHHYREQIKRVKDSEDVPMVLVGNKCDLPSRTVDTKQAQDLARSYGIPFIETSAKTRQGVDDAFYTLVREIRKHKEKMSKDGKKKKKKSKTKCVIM
PROTOCOL DESCRIPTION: Disruption of BRAF RBD interaction with K-Ras (FRET / MOA assay), K-Ras G12C
Format: biochemical
CONDITION PARAMETERS: read-out: KRAS G12C FRET IC50
Source text: Note—The following protocol describes a procedure for monitoring disruption of K-Ras G12C(GMP-PNP) binding to BRAF^RBD by a compound of the invention. This protocol may also be executed substituting other Ras proteins or nucleotides. […]
The compounds listed here are annotated with their IC50.

Worked cases, answers included:
[
  {
    "SMILES INPUT": "CCn1c(-c2cccnc2[C@H](C)OC)c2c3cc(ccc31)-c1csc(n1)C[C@H](NC(=O)[C@H](C(C)C)N(C)C(=O)[C@@H]1OCC[C@@H]1C)C(=O)N1CCC[C@H](N1)C(=O)OCC(C)(C)C2",
    "IC50": "100 to 1000 nM"
  },
  {
    "SMILES INPUT": "CCn1c(-c2cccnc2[C@H](C)OC)c2c3cc(ccc31)-c1csc(n1)C[C@H](NC(=O)[C@H](C(C)C)N(C)C(=O)N1CCN(C(=O)[C@@H]3CCCN3C)CC1)C(=O)N1CCC[C@H](N1)C(=O)OCC(C)(C)C2",
    "IC50": "10 to 100 nM"
  },
  {
    "SMILES INPUT": "CCn1c(-c2cccnc2[C@H](C)OC)c2c3cc(ccc31)-c1csc(n1)C[C@H](NC(=O)[C@H](C(C)C)N(C)C(=O)N1CC3(CCN(C)CC3)C1)C(=O)N1CCC[C@H](N1)C(=O)OCC(C)(C)C2",
    "IC50": "10 to 100 nM"
  }
]

**Query** // lookup IC50 for CCn1c(-c2cccnc2[C@H](C)OC)c2c3cc(ccc31)-c1csc(n1)C[C@H](NC(=O)[C@H](C(C)C)N1CCCN(C)C1=O)C(=O)N1CCC[C@H](N1)C(=O)OCC(C)(C)C2
**Result** < 10 nM

**Query** // lookup IC50 for CCn1c(-c2cnccc2COC)c2c3cc(ccc31)-c1cc(O)cc(c1)C[C@H](NC(=O)[C@H](C(C)C)N(C)C(=O)O[C@H]1CCOC1)C(=O)N1CCC[C@H](N1)C(=O)OCC(C)(C)C2
**Result** 10 to 100 nM

**Query** // lookup IC50 for CCn1c(-c2cccnc2[C@H](C)OC)c2c3cc(ccc31)-c1csc(n1)C[C@H](NC(=O)[C@H](C(C)C)N(C)C(=O)N1C[C@@H](C)N(C)C[C@@H]1C)C(=O)N1CCC[C@H](N1)C(=O)OCC(C)(C)C2
**Result** < 10 nM

**Query** // lookup IC50 for CCn1c(-c2cccnc2[C@H](C)OC)c2c3cc(ccc31)-c1cc(O)cc(c1)C[C@H](NC(=O)[C@@H](NC(C)=O)C(C)(C)OC)C(=O)N1CCC[C@H](N1)C(=O)OCC(C)(C)C2
**Result** 10 to 100 nM

**Query** // lookup IC50 for CCn1c(-c2cccnc2[C@H](C)OC)c2c3cc(ccc31)-c1csc(n1)C[C@H](NC(=O)[C@H](C(C)C)N(C)C(=O)N1CC[C@H]1CN)C(=O)N1CCC[C@H](N1)C(=O)OCC(C)(C)C2
**Result** 10 to 100 nM
